system: Aspergillus fumigatus; test: Antifungal activity against Aspergillus fumigatus cgmcc 3.7795 after 7 days by serial dilution method; type: functional; conditions: cgmcc 3.7795, 168 h
property-label: MIC (µg/mL)
One number for each entry, in µg/mL.

mol=CC(C)OC(=O)[C@H](Cn1ccnc1)NC(=O)c1noc2c1CCCc1ccccc1-2 test_target="Aspergillus fumigatus" quantity_unit=µg/mL quantitative_readout=64
mol=CC(C)OC(=O)[C@H](Cn1ccnc1)NC(=O)c1ccc2c(c1)OCO2 test_target="Aspergillus fumigatus" quantity_unit=µg/mL quantitative_readout=64
mol=CC(C)COC(=O)[C@H](Cn1ccnc1)NC(=O)c1ccc2c(c1)OCO2 test_target="Aspergillus fumigatus" quantity_unit=µg/mL quantitative_readout=64
mol=CC(C)COC(=O)[C@H](Cn1ccnc1)NC(=O)c1cc2ccccc2s1 test_target="Aspergillus fumigatus" quantity_unit=µg/mL quantitative_readout=8
mol=CC(C)OC(=O)[C@H](Cn1ccnc1)NC(=O)c1nc2ccccc2[nH]1 test_target="Aspergillus fumigatus" quantity_unit=µg/mL quantitative_readout=64
mol=COc1ccc2c(c1)CCc1c(C(=O)N[C@@H](Cn3ccnc3)C(=O)OC(C)C)noc1-2 test_target="Aspergillus fumigatus" quantity_unit=µg/mL quantitative_readout=64
mol=CC(C)COC(=O)[C@H](Cn1ccnc1)NC(=O)c1noc2c1CCc1ccccc1-2 test_target="Aspergillus fumigatus" quantity_unit=µg/mL quantitative_readout=8
mol=CC(C)OC(=O)[C@H](Cn1ccnc1)NC(=O)c1cc2ccccc2o1 test_target="Aspergillus fumigatus" quantity_unit=µg/mL quantitative_readout=32

For every record below, what is its MIC?
1. CC(C)COC(=O)[C@H](Cn1ccnc1)NC(=O)c1cc2ccccc2o1
2. CC(C)COC(=O)[C@H](Cn1ccnc1)NC(=O)c1cc2ccccc2n1C
3. CC(C)OC(=O)[C@H](Cn1ccnc1)NC(=O)c1cnc2ccccc2c1

RESULT:
[32, 64, 64]

Where do these numbers come from? They come from ChEMBL document CHEMBL4219262.
